Molecular target: T1, human SLC34A2 (human, UniProt O95436 1-690)
T1 construct: whole, on cells; also called human solute carrier 34 A2; NaPi2b
T1 sequence (looked up): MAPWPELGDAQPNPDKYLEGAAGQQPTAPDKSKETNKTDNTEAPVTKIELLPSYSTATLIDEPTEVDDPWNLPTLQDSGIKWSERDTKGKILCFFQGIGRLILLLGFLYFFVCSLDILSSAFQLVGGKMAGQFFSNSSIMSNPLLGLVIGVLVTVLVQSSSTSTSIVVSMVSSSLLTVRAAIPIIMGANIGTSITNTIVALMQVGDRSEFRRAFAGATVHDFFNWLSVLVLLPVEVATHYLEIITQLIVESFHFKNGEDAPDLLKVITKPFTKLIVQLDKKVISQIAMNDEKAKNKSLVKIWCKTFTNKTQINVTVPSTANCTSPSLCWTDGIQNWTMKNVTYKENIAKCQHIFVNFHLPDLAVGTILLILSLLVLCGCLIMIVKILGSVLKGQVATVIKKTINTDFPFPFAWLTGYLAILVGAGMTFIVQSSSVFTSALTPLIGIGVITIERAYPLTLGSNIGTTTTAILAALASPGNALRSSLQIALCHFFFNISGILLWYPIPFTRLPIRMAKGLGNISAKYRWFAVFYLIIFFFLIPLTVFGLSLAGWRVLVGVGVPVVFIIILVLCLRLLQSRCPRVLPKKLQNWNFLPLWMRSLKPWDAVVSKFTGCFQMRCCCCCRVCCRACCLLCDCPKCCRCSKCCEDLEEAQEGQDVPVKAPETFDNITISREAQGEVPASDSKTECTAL
Test: FACS, HEK293/human SLC34A2 cells
pEC50: −log10 of the molar value.

binder	pEC50
62G10E4G8.p3.z11 hIgG1 (antibody, V domains shown, humanized hIgG1) VH: QVQLVQSGAEVKKPGASVKVSCKASGYTFPSYITHWVKQAPGQGLEWIGAIYPGNADTSYIQKFKGRVTLTADKSTSTAYMELSSLRSEDTAVYYCARGTYGTSAWFTYWGQGTLVTVSS VL: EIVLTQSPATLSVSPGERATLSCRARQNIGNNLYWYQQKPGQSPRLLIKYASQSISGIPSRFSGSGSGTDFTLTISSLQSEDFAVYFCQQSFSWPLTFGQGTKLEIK	8.29
91C9F1.p1.z10 hIgG1 (antibody, V domains shown, humanized hIgG1) VH: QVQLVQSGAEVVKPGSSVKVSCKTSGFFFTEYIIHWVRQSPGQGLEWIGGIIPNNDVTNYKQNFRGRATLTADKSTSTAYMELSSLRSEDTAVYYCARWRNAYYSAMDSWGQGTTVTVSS VL: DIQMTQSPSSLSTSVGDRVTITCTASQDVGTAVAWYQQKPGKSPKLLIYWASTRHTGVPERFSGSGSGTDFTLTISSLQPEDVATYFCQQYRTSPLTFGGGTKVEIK	8.63
